The listing below reports log10 IC50 for compounds tested on UniProtKB P42336.
Sequence (P42336 whole entry): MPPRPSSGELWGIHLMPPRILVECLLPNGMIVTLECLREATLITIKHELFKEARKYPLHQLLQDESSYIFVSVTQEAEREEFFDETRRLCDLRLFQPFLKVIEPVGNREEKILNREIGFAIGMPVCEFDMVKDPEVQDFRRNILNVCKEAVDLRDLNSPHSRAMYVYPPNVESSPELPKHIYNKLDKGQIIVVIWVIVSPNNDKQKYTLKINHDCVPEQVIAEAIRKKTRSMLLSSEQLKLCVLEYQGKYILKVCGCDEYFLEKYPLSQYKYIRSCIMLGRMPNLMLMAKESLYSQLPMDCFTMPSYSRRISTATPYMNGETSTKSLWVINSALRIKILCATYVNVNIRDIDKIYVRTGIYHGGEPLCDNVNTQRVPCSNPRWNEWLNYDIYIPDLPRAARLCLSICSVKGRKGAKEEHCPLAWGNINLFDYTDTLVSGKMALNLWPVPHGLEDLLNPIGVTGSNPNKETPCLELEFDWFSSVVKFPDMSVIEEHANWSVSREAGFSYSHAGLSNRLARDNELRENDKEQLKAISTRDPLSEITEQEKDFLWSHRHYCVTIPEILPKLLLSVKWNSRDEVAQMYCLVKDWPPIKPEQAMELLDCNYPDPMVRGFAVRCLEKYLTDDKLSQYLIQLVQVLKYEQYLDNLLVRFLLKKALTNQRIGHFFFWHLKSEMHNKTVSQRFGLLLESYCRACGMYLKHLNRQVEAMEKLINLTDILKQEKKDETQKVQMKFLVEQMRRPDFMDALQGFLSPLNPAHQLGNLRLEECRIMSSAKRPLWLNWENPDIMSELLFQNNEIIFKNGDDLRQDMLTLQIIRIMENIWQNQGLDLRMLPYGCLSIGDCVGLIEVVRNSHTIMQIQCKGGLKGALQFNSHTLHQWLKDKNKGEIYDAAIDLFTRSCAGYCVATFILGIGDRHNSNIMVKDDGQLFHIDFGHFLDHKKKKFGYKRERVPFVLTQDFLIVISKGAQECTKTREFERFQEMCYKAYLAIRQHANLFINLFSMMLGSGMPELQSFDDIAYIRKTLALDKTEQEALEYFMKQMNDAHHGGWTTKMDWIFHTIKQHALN
Sequence (P27986 whole entry partner): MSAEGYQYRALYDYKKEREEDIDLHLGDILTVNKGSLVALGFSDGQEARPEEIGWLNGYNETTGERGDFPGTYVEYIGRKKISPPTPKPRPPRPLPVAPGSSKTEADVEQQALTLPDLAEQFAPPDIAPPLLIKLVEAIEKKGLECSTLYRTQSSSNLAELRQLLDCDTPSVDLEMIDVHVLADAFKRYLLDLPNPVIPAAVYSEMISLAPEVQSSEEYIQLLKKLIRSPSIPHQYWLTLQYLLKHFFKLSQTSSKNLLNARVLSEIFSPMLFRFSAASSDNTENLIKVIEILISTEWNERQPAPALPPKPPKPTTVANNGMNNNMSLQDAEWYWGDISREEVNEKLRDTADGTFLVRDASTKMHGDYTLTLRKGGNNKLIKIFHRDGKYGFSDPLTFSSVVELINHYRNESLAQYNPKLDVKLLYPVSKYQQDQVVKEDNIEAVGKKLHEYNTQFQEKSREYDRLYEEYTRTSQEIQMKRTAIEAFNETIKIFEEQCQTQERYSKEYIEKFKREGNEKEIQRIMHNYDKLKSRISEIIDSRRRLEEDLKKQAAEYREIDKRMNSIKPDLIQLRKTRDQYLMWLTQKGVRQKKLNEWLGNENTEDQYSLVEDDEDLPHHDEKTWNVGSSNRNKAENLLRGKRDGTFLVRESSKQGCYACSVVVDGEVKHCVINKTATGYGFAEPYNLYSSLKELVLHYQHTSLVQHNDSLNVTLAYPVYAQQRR
A difference of one corresponds to tenfold IC50; all values are log10 with IC50 in µM.

smiles	obs.value
CCNC(=O)Nc1ccc2ncc(-c3ccc(O)c(OC)c3)nc2n1	-0.31
C=CCNC(=S)Nc1ccc2ncc(-c3ccc(O)cc3)nc2n1	-0.43
CCNC(=O)Nc1ccc2ncc(-c3ccc(O)cc3Cl)nc2n1	0.38

# log10 IC50 lookup, item CCNC(=O)Nc1ccc2ncc(Nc3cc(C(=O)O)cc(C(F)(F)F)c3)nc2n1
-0.63

Given CCNC(=O)Nc1ccc2ncc(-c3cc(Cl)c(O)c(OC)c3)nc2n1 , state its recorded log10 IC50.
-0.37

Recorded log10 IC50 for CCNC(=S)Nc1ccc2ncc(-c3ccc(O)cc3)nc2n1 , please?
0.54

What does the data say about its log10 IC50? Entry: CCNC(=O)Nc1ccc2ncc(Nc3ccc4ccccc4c3)nc2n1
-0.79

Can you share its log10 IC50? I mean this compound: CCNC(=O)Nc1ccc2ncc(-c3ccc(N)c(OC)c3)nc2n1
-0.01

Can you look up the measured log10 IC50 of CCNC(=O)Nc1ccc2ncc(-c3cccc(C(=O)O)c3)nc2n1 for me?
0.72

---

test system: Jnk1 + Jnk2; test: Cell-free kinase assay (ALPHA technology), Jnk1 + Jnk2; format: biochemical, human; details: 10 μM ATP
readout.name: pIC50
Just so you know, pIC50 here is -log10 of the concentration in molar units; reply with that number alone.

compound	readout.name	obs.value
CCNC(=O)Nc1ccc2ncc(-c3cccc(C(N)=O)c3)nc2n1	pIC50	5.11

Query for Jnk1 + Jnk2: what pIC50 does the record show for CCNC(=O)Nc1ccc2ncc(-c3ccc(O)c(OC)c3)nc2n1 [Compound 124] ?
6.00

Enter reported pIC50 observed with Jnk1 + Jnk2 for CCNC(=O)Nc1ccc2ncc(Nc3ccc4ccccc4c3)nc2n1
5.64

Form: Entry = CCNC(=O)Nc1ccc2ncc(-c3ccc(OC)c(OC)c3)nc2n1 | System = Jnk1 + Jnk2 | pIC50 = ____
5.17

# returns recorded pIC50 (system: Jnk1 + Jnk2) for CCNC(=O)Nc1ccc2ncc(-c3cccc(C(=O)O)c3)nc2n1
4.92

What pIC50 appears in the records for this compound with Jnk1 + Jnk2? O=C(NCCCO)Nc1ccc2ncc(-c3ccccc3)nc2n1
4.85

Fill in the recorded pIC50 for this compound, with Jnk1 + Jnk2 as test system: CCNC(=O)Nc1ccc2ncc(Nc3cccc(C)c3)nc2n1
4.55

Find pIC50 (Jnk1 + Jnk2) for the entry CCNC(=O)Nc1ccc2ncc(Nc3ccc(Cl)cc3)nc2n1
4.90

---

This section presents compounds with their documented IC50 values.
tested on: Jnk1 + Jnk2; assay: Cell-free kinase assay (ALPHA technology), Jnk1 + Jnk2; assay type: biochemical, human; conditions: 10 μM ATP
Field: numeric (µM). Do not append units.

Below are worked cases with known answers.
compound	tested.on	unit	IC50
O=C(NCCCCO)Nc1ccc2ncc(-c3ccccc3)nc2n1 [Compound 146]	Jnk1 + Jnk2	µM	3.3
CCNC(=O)Nc1ccc2ncc(-c3ccc(C#N)s3)nc2n1 [Compound 174]	Jnk1 + Jnk2	µM	4.6

Find the recorded IC50 belonging to CCNC(=O)Nc1ccc2ncc(Nc3ccc(OC)nc3)nc2n1 [Compound 190] and report it.
31

Would you kindly share the measured IC50 for CCNC(=O)Nc1ccc2ncc(-c3ccc(OCCCN4CCOCC4)cc3)nc2n1 [Compound 148] ?
13.7

# get_value(readout='IC50', item= CCNC(=O)Nc1ccc2ncc(-c3ccc(O)c(OC)c3)nc2n1.Cc1ccc(S(=O)(=O)O)cc1 [Compound 183] )
4.7

What measured IC50 goes with CCNC(=O)Nc1ccc2ncc(Nc3ccc(O)cc3)nc2n1 [Compound 164] ?
24.3
